# SYSTEM_TESTED: anti-CD28 Fab (SEQ ID NOs: 202, 203)
# Sequence (VH, as listed by the source, chain 1 of 2): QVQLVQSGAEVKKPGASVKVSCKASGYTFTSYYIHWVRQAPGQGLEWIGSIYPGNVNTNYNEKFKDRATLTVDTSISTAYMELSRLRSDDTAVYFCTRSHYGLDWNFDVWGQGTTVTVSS
# Sequence (VL, as listed by the source, chain 2 of 2): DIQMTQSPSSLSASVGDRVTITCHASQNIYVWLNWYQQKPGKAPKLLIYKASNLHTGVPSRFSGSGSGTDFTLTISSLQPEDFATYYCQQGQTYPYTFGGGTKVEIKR
# TEST_NAME: phage binding ELISA; biotinylated anti-CD28 Fab captured on neutravidin plate, clonal phage supernatant, anti-M13-HRP detection;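 further: before crude clonal phage supernatants were added, wells were preincubated with CD28 antigen in blocking buffer or with blocking buffer only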
Threshold rule: Anti-CD28 Fab (SEQ ID NOs: 202, 203) signal greater than or equal to 0.9 is met; below that, not met.

BINDER | QUALITATIVE_LABEL
TCAAGATYDWPSCL [Phage-1247] | not met
ICAAGAGWPWPWCL [Phage-1245] | not met
SCAAGAGYGWPQCL [Phage-1257] | not met
TCSAGAQWEWPACL [Phage-1253] | not met
MCAAGAMYNWPLCL [Phage-1224] | met
SCGGGFHYSWPLCF [Phage-1258] | not met
SCSAGAMWLWPECF [Phage-1241] | not met
TCSAGATYKWPTCL [Phage-1222] | met
TCAAGATYEWPSCI [Phage-1234] | not met
PCAAGAHYVWPVCF [Phage-1221] | met
ECSAGAMWGWPACF [Phage-1246] | not met
VCAAGAAYPWPACL [Phage-1226] | met
TCAAGASWDWPFCF [Phage-1237] | not met
TCAAGAKYVWPLCF [Phage-1235] | not met
GCAAGFHYTLSTCL [Phage-1259] | not met
RCKAGVPYKWPMCL [Phage-1233] | not met
TCSAGAHYPWPMCL [Phage-1227] | met
TCSAGATYKWPMCF [Phage-1243] | not met
WCSAVFSYQWPPCF [Phage-1242] | not met
SCAAGASYSWPLCF [Phage-1225] | met
WCSAVFSYQWPVCL [Phage-1254] | not met
LCEAGFNYDWPRCL [Phage-1236] | not met
WCAAFFHYPWPQCF [Phage-1232] | not met
PCSAGATYAWPYCL [Phage-1249] | not met
TCAAGAVWQWPTCF [Phage-1248] | not met
TCAAGAQLEWPWCF [Phage-1250] | not met
